read-out: Urokinase-type plasminogen activator receptor (uPAR), PLAUR (gene 5329); assay: BSK_CASM3C_uPAR: BioMAP Diversity Plus: CASM3C Assay for Urokinase-type plasminogen activator receptor (uPAR) Biomarker Activity (AID 2283054); settings: primary human coronary artery smooth muscle cells; actives raise or lower the signal;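 also: cell-surface uPAR protein level quantified by ELISA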
Calls of active or inactive are those of the source. The calls were made as follows: active = hit-call score of the fitted dose curve at least 0.9, where 1 is the maximum; inactive = score below 0.9.
Response enum: active, inactive

| molecule | label |
| --- | --- |
| CC(C)Oc1ccccc1O | inactive |
| CC(C)c1ccc(C(C)C)cc1 | active |
| CCCCC(CC)COC(=O)/C=C\C(=O)OCC(CC)CCCC (configuration not stated) | inactive |
| NCCNCCN | inactive |
| O=C1OC2(c3cc(Br)c(O)c(Br)c3Oc3c2cc(Br)c(O)c3Br)c2c(Cl)c(Cl)c(Cl)c(Cl)c21 | inactive |

Could you kindly confirm the outcome this assay logged for CCCCCCCCCC=O ?
inactive

Could you kindly confirm the outcome this assay logged for CC1COc2ccccc2N1C(=O)C(Cl)Cl (configuration not stated) ?
active

---

read-out: Interleukin-6 (IL6), IL6 (gene 3569); test: BSK_CASM3C_IL6: BioMAP Diversity Plus: CASM3C Assay for Interleukin-6 (IL6) Biomarker Activity for (AID 2283040); details: primary human coronary artery smooth muscle cells; actives raise or lower the signal
Calls of active or inactive are those of the source. Rule for the calls: active = hit-call score of the fitted dose curve at least 0.9, where 1 is the maximum; inactive = score below 0.9.
Response enum: active, inactive

Could you kindly confirm the outcome this assay logged for Cc1cc(C2(c3cc(C)c(O)cc3C)OS(=O)(=O)c3ccccc32)c(C)cc1O ?
inactive

Could you kindly confirm the outcome this assay logged for CC(C)c1ccc(C(C)C)cc1 ?
active

Could you kindly confirm the outcome this assay logged for COc1cc(C=O)ccc1OC(=O)C(C)C ?
inactive

Could you kindly confirm the outcome this assay logged for O=C(O)c1ccc([N+](=O)[O-])cc1 ?
inactive

Could you kindly confirm the outcome this assay logged for CCc1c(C)cc(N)c(CC)c1N ?
inactive

Could you kindly confirm the outcome this assay logged for CCCCC(CC)COCCC#N (stereo not given) ?
inactive

---

Read-out: Interferon-gamma inducible Protein 10 (IP10), CXCL10 (gene 3627)
Experiment: BSK_hDFCGF_IP10: BioMAP Diversity Plus: hDFCGF Assay for Interferon-gamma inducible Protein 10 (IP10) Biomarker Activity (AID 2283053)
Conditions: primary human foreskin fibroblasts; actives raise or lower the signal
Protocol: BSK_hDFCGF is a cell-based, multiplexed-readout assay that uses foreskin fibroblast, a human skin primary cell, with measurements taken at 24 hours after chemical dosing in a 96-well plate.BSK_hDFCGF_IP10 is an assay component measured in the BSK_hDFCGF assay. It measures IP-10 antibody related to regulation of gene expression using ELISA technology.Data from the assay component BSK_hDFCGF_IP10 was analyzed into 1 assay endpoint. […]
Activity calls are given as the source filed them. Rule for the calls: active = hit-call score of the fitted dose curve at least 0.9, where 1 is the maximum; inactive = score below 0.9.

| compoundString | outcome |
| --- | --- |
| CCCCCCCCCC=O | inactive |
| CC(=O)Nc1ccccc1O | inactive |
| CC(C)(COC(=O)c1ccccc1)COC(=O)c1ccccc1 | inactive |

---

molecular target: human Matrix Metalloproteinase-9 (MMP9), MMP9 (gene 4318) (UniProt P14780); experiment: NVS_ENZ_hMMP9: NovaScreen (NVS) Enzymatic Assay for human Matrix Metalloproteinase-9 (MMP9) (AID 2283190);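 also: cell-free recombinant MMP9 protease activity read by fluorescent substrate signal; active means inhibition seen as loss of fluorescence signal versus DMSO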
Sequence (P14780 whole entry, looked up): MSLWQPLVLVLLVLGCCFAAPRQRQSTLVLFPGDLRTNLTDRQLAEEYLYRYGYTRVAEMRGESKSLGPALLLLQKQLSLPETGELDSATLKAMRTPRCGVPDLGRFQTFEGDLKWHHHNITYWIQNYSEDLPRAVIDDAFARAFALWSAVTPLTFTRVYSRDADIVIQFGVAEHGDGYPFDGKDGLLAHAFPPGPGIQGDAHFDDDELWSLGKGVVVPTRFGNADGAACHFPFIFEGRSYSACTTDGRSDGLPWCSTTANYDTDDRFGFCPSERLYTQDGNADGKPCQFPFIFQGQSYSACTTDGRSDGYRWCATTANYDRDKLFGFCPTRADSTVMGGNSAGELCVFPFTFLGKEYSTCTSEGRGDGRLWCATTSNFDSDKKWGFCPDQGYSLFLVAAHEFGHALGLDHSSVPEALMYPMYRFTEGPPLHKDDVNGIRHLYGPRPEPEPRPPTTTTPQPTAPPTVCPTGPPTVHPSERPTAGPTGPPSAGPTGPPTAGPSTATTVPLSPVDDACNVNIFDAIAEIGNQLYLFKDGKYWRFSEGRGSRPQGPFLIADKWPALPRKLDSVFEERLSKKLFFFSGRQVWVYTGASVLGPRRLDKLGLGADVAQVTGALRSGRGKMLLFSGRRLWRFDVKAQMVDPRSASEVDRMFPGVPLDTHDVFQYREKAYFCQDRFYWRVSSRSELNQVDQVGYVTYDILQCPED
Results filed as inconclusive are left out. Active and inactive are the calls of the source. Rule for the calls: active = hit-call score of the fitted dose curve at least 0.9, where 1 is the maximum; inconclusive = response in the unintended direction; inactive = score below 0.9.
Recorded AC50 by entry

Known results for molecules:
| molecule | AC50 |
| --- | --- |
| CCCCCCCCC | 25000 nM (active) |
| O=C=NC1CCC(CC2CCC(N=C=O)CC2)CC1 (stereo not given) | 2170 nM (active) |
| CCO[Si](CCCS)(OCC)OCC | 1650 nM (active) |
| Cc1ccc(Nc2ccc(O)c3c2C(=O)c2ccccc2C3=O)cc1 | 2180 nM (active) |

Okay, next one:
Form field: reported AC50 of CC(=O)OCCOC(C)=O
14900 nM (active)

---

target: Retinoic acid receptor RXR-alpha (Homo sapiens) (UniProt P19793); assay: OT_NURR1_NURR1RXRa_0480: Odyssey Thera (OT) 8-hour HEK293T Protein Complementation Assay for Nurr1/retinoid X receptor (RXR) (AID 2283385)
Sequence (P19793 whole entry, looked up): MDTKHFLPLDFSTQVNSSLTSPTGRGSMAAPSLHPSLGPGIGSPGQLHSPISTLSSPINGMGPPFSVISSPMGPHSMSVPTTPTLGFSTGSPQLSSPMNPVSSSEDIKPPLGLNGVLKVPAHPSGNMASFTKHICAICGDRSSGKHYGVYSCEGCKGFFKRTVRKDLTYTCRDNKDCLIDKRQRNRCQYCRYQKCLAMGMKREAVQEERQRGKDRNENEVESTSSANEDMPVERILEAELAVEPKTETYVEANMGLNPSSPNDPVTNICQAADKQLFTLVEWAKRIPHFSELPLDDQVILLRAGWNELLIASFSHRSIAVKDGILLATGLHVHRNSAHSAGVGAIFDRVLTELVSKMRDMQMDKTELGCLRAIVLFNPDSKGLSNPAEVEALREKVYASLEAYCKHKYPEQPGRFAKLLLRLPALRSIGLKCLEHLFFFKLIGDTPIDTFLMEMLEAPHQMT
Results filed as inconclusive are left out. Activity calls are given as the source filed them. The calls were made as follows: active = hit-call score of the fitted dose curve at least 0.9, where 1 is the maximum; inconclusive = response in the unintended direction; inactive = score below 0.9.
Response enum: active, inactive

| compound | testTarget | label |
| --- | --- | --- |
| O=C1C(c2[nH]c3ccc(S(=O)(=O)O)cc3c2O)=Nc2ccc(S(=O)(=O)O)cc21 | Retinoic acid receptor RXR-alpha (Homo sapiens) (UniProt P19793) | inactive |
| COc1c(Cl)c(Cl)c(Cl)c(Cl)c1Cl | Retinoic acid receptor RXR-alpha (Homo sapiens) (UniProt P19793) | inactive |
| CC1(C)[C@@H]2CC[C@@]1(C)[C@H](O)C2 | Retinoic acid receptor RXR-alpha (Homo sapiens) (UniProt P19793) | inactive |
| CCN(CC)c1ccc2c(-c3ccccc3C(=O)O)c3ccc(=[N+](CC)CC)cc-3oc2c1 | Retinoic acid receptor RXR-alpha (Homo sapiens) (UniProt P19793) | active |
| CC1CC(OC(=O)c2ccccc2O)CC(C)(C)C1 (stereo not drawn) | Retinoic acid receptor RXR-alpha (Homo sapiens) (UniProt P19793) | active |

Could you kindly confirm the outcome this assay logged for CCCCCC(CO)CCC (stereo not drawn) ?
inactive

Could you kindly confirm the outcome this assay logged for CC(=O)C=CC1=C(C)CCCC1(C)C ?
active

Could you kindly confirm the outcome this assay logged for NCCCCCCN ?
inactive

---

target: Transcription factor E2F1 (Homo sapiens); assay: ATG_E2F_CIS: Attagene CIS-FACTORIAL HepG2 Assay for human E2F Transcription Factor 1 (AID 2282935); settings: HepG2 Attagene cis-reporter, E2F reporter RNA transcripts; actives raise or lower the signal
Active and inactive are the calls of the source. How the source made its calls: active means hit-call score of the fitted dose curve at least 0.9, where 1 is the maximum; inactive means score below 0.9.
Response enum: TRUE (active), FALSE (inactive)

Study these solved cases before continuing.
| compound | label |
| --- | --- |
| Nc1ccc(F)c([N+](=O)[O-])c1 | FALSE |
| CC(C)(C)c1n[nH]c(=S)n(N)c1=O | FALSE |

Could you kindly confirm the outcome this assay logged for c1ccc2[nH]ccc2c1 ?
FALSE

Could you kindly confirm the outcome this assay logged for CC(C)(C)NC(N)=O ?
FALSE

Could you kindly confirm the outcome this assay logged for O=C[C@@H](O)[C@H](O)[C@H](O)CO ?
FALSE

---

biological target: human Peroxisome Proliferator-activated Receptor alpha (PPARa), PPARA (gene 5465) (UniProt Q07869); assay: ATG_PPARa_TRANS: Attagene TRANS-FACTORIAL HepG2 Assay for human Peroxisome Proliferator-activated Receptor alpha (PPARa) (AID 2283001)
Sequence (Q07869 whole entry, looked up): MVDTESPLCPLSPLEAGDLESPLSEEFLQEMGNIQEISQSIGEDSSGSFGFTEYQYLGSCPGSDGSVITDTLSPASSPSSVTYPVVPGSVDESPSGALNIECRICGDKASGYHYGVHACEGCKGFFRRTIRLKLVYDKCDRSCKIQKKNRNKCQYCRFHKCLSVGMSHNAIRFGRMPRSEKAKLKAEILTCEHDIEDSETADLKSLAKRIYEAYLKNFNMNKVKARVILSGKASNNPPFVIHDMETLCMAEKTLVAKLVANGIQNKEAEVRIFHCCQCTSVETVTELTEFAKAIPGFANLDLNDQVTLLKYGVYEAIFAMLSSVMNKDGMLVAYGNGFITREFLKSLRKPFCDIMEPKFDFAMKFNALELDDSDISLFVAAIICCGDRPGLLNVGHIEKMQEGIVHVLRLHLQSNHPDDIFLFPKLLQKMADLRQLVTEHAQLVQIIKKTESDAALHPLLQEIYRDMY
Records with an inconclusive call do not appear. Active and inactive are the calls of the source. Rule for the calls: active = hit-call score of the fitted dose curve at least 0.9, where 1 is the maximum; inconclusive = response in the unintended direction; inactive = score below 0.9.
Response enum: 1.0 = active, 0.0 = inactive

Study these solved cases before continuing.
| compoundString | label |
| --- | --- |
| C[C@H]1C[C@H]2[C@@H]3CCC4=CC(=O)C=C[C@]4(C)[C@@]3(F)[C@@H](O)C[C@]2(C)[C@@]1(O)C(=O)COP(=O)(O)O | 0.0 |
| c1ccc2[nH]ccc2c1 | 0.0 |
| CCCCCCCCCCCCCC(=O)O | 1.0 |
| CC(C)c1ccc(C(C)C)cc1 | 0.0 |
| OCc1cccnc1 | 0.0 |
| CCCC[n+]1ccccc1 | 0.0 |
| CCCCc1ccc(N)cc1 | 1.0 |
| N#Cc1ccccc1 | 0.0 |
| C#C[C@]1(O)CC[C@H]2[C@@H]3CCC4=Cc5oncc5C[C@]4(C)[C@H]3CC[C@@]21C | 1.0 |

Now consider the entry below.
Could you kindly confirm the outcome this assay logged for CCCCCCCCCCCCCCCC(=O)OC[C@H](O)[C@H]1OC(=O)C(O)=C1O ?
0.0

---

biological target: Aryl hydrocarbon receptor (Homo sapiens) (UniProt P35869); assay: ATG_Ahr_CIS: Attagene CIS-FACTORIAL HepG2 Assay for human Aryl Hydrocarbon Receptor (Ahr) (AID 2282930); conditions: HepG2 AhR cis-factorial reporter transcription; actives raise or lower the signal
Sequence (P35869 whole entry, looked up): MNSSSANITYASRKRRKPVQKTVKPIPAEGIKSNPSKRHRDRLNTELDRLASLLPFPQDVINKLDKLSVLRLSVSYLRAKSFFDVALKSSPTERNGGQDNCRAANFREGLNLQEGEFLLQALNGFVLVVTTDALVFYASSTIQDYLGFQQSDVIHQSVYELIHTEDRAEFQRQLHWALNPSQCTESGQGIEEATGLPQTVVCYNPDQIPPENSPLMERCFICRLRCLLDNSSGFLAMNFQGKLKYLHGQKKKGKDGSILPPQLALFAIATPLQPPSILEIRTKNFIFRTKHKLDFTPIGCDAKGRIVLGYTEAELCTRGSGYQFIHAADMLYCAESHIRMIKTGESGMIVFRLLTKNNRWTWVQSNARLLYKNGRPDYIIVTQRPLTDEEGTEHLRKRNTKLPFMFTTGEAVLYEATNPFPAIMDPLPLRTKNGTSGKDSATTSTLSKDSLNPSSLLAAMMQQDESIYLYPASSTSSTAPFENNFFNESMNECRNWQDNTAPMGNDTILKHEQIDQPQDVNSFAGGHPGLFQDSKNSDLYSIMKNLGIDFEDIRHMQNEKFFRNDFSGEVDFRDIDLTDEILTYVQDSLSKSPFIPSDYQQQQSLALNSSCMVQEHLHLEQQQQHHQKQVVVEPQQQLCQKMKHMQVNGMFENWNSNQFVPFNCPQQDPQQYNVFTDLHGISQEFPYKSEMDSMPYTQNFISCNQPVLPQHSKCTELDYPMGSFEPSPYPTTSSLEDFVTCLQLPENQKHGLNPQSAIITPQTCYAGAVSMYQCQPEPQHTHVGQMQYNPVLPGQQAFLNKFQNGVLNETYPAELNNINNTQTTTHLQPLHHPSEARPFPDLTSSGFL
Calls of active or inactive are those of the source. How the source made its calls: active means hit-call score of the fitted dose curve at least 0.9, where 1 is the maximum; inactive means score below 0.9.
Response enum: 1 (yes) (active), 0 (no) (inactive)

Study these solved cases before continuing.
| compound | label |
| --- | --- |
| CCCCNC(=O)NS(=O)(=O)c1ccc(C)cc1 | 0 (no) |
| CCCCCC(=O)OCCc1ccccc1 | 0 (no) |
| C=C(C)C(=O)O | 0 (no) |
| O=C[C@H](O)[C@H](O)[C@H](O)CO | 0 (no) |
| CC(C)(C)c1n[nH]c(=S)n(N)c1=O | 1 (yes) |
| CC(C)CCCCCCCOC(=O)c1ccc(C(=O)OCCCCCCCC(C)C)c(C(=O)OCCCCCCCC(C)C)c1 | 0 (no) |
| C=CC(=O)OCCn1c(=O)n(CCOC(=O)C=C)c(=O)n(CCOC(=O)C=C)c1=O | 1 (yes) |
| C=C(C)[C@@H]1CCC2=CC(=O)C[C@@H](C)[C@]2(C)C1 | 0 (no) |

Now consider the entry below.
Could you kindly confirm the outcome this assay logged for CC1CC(OC(=O)c2ccccc2O)CC(C)(C)C1 (stereo not drawn) ?
0 (no)
